assay protocol: Terminal half life in Balb/C mouse at 10 mg/kg, po by LC-MS/MS analysis
Type: ADME, organism-based
test settings: in vivo, read-out: beta t1/2 (converted)
property name: half-life (h)
Give bare numbers, in h.

molecule CN1CCN(CC2CCN(c3cncc4[nH]c(-c5cc(F)cc(F)c5)nc34)CC2)CC1 , half-life observed: 4.9

###

Give measured log10 of Cmax for each item. Keep answers brief.
assay protocol: Cmax in Balb/C mouse at 2 mg/kg, iv by LC-MS/MS analysis
Type: ADME, organism-based
Parameters: route intravenous, dose 2 mg/kg
test settings: in vivo
All values: log10 Cmax [nM].

Example results:
CN1CCN(C2CCN(c3nccc4[nH]c(-c5cc(F)cc(F)c5)nc34)CC2)CC1; 2.48
Fc1ccc(-c2nc3c(N4CCC(CN5CCOCC5)CC4)nccc3[nH]2)cc1F; 2.48
CN1CCN(c2nccc3nc(-c4ccc(F)c(F)c4)[nH]c23)CC1; 3.00
CN1CCC(N2CCN(c3nccc4[nH]c(-c5ccc(F)c(F)c5)nc34)CC2)CC1; 3.23
CN1CCN(CC2CCN(c3nccc4[nH]c(-c5cc(F)cc(F)c5)nc34)CC2)CC1; 2.78

Lab note: each compound below needs its log10 of Cmax filled in.
1. Cn1ccnc1N1CCN(CC2CCN(c3nccc4[nH]c(-c5cc(F)cc(F)c5)nc34)CC2)CC1
2. CN1CCN(CC2CCN(c3cncc4[nH]c(-c5cc(F)cc(F)c5)nc34)CC2)CC1

[out]
1. 3.20
2. 2.00

###

assay protocol: Selectivity index, ratio of CC50 for cytotoxicity against CHO cells assessed as reduction in cell viability to IC50 for antiplasmodial activity against multidrug-sensitive Plasmodium falciparum NF54 assessed as reduction in parasite growth
Assay type: toxicity, cell-based
test settings: hamster, read-out: Ratio CC50/IC50
property name: selectivity ratio
Give bare numbers.

Use the examples below as a reference point.
CN1CCC(N2CCCN(c3nccc4[nH]c(-c5ccc(F)c(F)c5)nc34)CC2)CC1; 490
Cc1cc2[nH]c(-c3cc(F)cc(F)c3)nc2c(N2CCC(CN3CCN(C)CC3)CC2)n1; 160
CN1CCN(CC2CCN(c3nccc4[nH]c(-c5cccc(OC(F)(F)F)c5)nc34)CC2)CC1; 47

Required: selectivity ratio, one value per molecule below.
1. Fc1ccc(-c2nc3c(N4CCC(CN5CCOCC5)CC4)nccc3[nH]2)cc1F
2. Cn1ccnc1N1CCN(CC2CCN(c3nccc4[nH]c(-c5cc(F)cc(F)c5)nc34)CC2)CC1

[out]
[690, 1140]

###

assay protocol: Cmax in Balb/C mouse at 20 mg/kg, po by LC-MS/MS analysis
Type: ADME, organism-based
Set-up: route oral, dose 20 mg/kg
test settings: in vivo
property name: Cmax

// for each compound in input: emit Cmax
1. CN1CCN(CC2CCN(c3nccc4[nH]c(-c5cc(F)cc(F)c5)nc34)CC2)CC1
2. CN1CCC(N2CCN(c3nccc4[nH]c(-c5ccc(F)c(F)c5)nc34)CC2)CC1
3. Fc1ccc(-c2nc3c(N4CCC(CN5CCOCC5)CC4)nccc3[nH]2)cc1F
4. Cn1ccnc1N1CCN(CC2CCN(c3nccc4[nH]c(-c5cc(F)cc(F)c5)nc34)CC2)CC1
5. CN1CCN(C2CCN(c3nccc4[nH]c(-c5cc(F)cc(F)c5)nc34)CC2)CC1

[out]
1500 nM
1100 nM
3700 nM
1700 nM
1500 nM

###

Hi there, I'd appreciate the recorded solubility thermodynamic at 20 h for every entry that follows.
assay protocol: Aqueous solubility of compound in phosphate buffer saline at pH 6.5 incubated for 20 hrs under shaking condition by shake-flask method based HPLC-DAD analysis
Format: physicochemical
test settings: phosphate buffered saline
Give bare numbers, in µM.

Below are worked cases with known answers.
CN1CCC(N2CCN(c3nccc4[nH]c(-c5ccc(F)c(F)c5)nc34)CC2)CC1; 200
CN1CCN(C[C@H]2CCCN(c3nccc4[nH]c(-c5cc(F)cc(F)c5)nc34)C2)CC1; 200
NC1CCN(c2nccc3[nH]c(-c4ccc(F)c(F)c4)nc23)CC1; 200

Each compound below has a recorded value; state its solubility thermodynamic at 20 h.
1. CN1CCN(C2CCN(c3nccc4[nH]c(-c5cc(F)cc(F)c5)nc34)CC2)CC1
2. CN1CCN(CC2CCN(c3nncc4[nH]c(-c5cc(F)cc(F)c5)nc34)CC2)CC1

[out]
200
190

###

assay protocol: Clearance in Balb/C mouse blood at 2 mg/kg, iv by LC-MS/MS analysis
Assay type: ADME, organism-based
test settings: whole blood
Please go through the items and note down their clearance.
One number for each entry, in mL/min/kg.

CN1CCN(C2CCN(c3nccc4[nH]c(-c5cc(F)cc(F)c5)nc34)CC2)CC1; 34.8
Fc1ccc(-c2nc3c(N4CCC(CN5CCOCC5)CC4)nccc3[nH]2)cc1F; 19.6
CN1CCN(CC2CCN(c3nccc4[nH]c(-c5cc(F)cc(F)c5)nc34)CC2)CC1; 20.2
CN1CCC(N2CCN(c3nccc4[nH]c(-c5ccc(F)c(F)c5)nc34)CC2)CC1; 11.4
Cn1ccnc1N1CCN(CC2CCN(c3nccc4[nH]c(-c5cc(F)cc(F)c5)nc34)CC2)CC1; 9

Dear reader, for each entry below, please note its clearance.
1. CN1CCN(c2nccc3nc(-c4ccc(F)c(F)c4)[nH]c23)CC1
2. CN1CCN(CC2CCN(c3cncc4[nH]c(-c5cc(F)cc(F)c5)nc34)CC2)CC1

[out]
1: 27.3; 2: 71.8

###

Answer each item with its documented solubility thermodynamic at 20 h.
assay protocol: Aqueous solubility of compound in phosphate buffer saline at pH 6.5 incubated for 20 hrs under shaking condition by shake-flask method based HPLC-DAD analysis
Format: physicochemical
test settings: phosphate buffered saline
One number for each entry, in µM.

CN1CCN(c2nccc3nc(-c4ccc(F)c(F)c4)[nH]c23)CC1; 130
CN1CCN(CC2CCN(c3cccc4[nH]c(-c5cc(F)cc(F)c5)nc34)CC2)CC1; 200
CN1CCN(C2CCN(c3nccc4[nH]c(-c5ccc(F)c(C(F)(F)F)c5)nc34)CC2)CC1; 195
CN1CCN(CC2CCN(c3nccc4[nH]c(-c5cc(F)cc(F)c5)nc34)CC2)CC1; 200

Next item in the queue.
Entry CN1CCN(CC2CCN(c3nccc4[nH]c(-c5cc(F)cc(C(F)(F)F)c5)nc34)CC2)CC1 ; solubility thermodynamic at 20 h = 165

###

assay protocol: Selectivity index, ratio of CC50 for cytotoxicity against CHO cells assessed as reduction in cell viability to IC50 for antiplasmodial activity against multidrug-sensitive Plasmodium falciparum NF54 assessed as reduction in parasite growth
Type: toxicity, cell-based
test settings: hamster, read-out: Ratio CC50/IC50
Give selectivity ratio for every item shown.
Give bare numbers.

Use the examples below as a reference point.
Fc1ccc(-c2nc3c(N4CCCN(CC5CC5)CC4)nccc3[nH]2)cc1F; 850
CN1CCN(CC2CCN(c3nccc4[nH]c(-c5cc(F)cc(F)c5)nc34)CC2)CC1; 1040
CN1CCN(C2CCN(c3nccc4[nH]c(-c5cccc(OC(F)(F)F)c5)nc34)CC2)CC1; 47
CN1CCN(CC2CCN(c3nccc4[nH]c(-c5ccc(F)c(F)c5)nc34)CC2)CC1; 370
CN1CCC(N2CCN(c3nccc4[nH]c(-c5ccc(F)c(F)c5)nc34)CC2)CC1; 460

Kindly note the recorded selectivity ratio for CN1CCN(C2CCN(c3nccc4[nH]c(-c5ccc(F)c(F)c5)nc34)CC2)CC1 , which is 110

###

assay protocol: Oral bioavailability in Balb/C mouse at 5 mg/kg by LC-MS/MS analysis
Type: ADME, organism-based
test settings: in vivo
property name: bioavailability (%)
Answers are plain numbers, in %.

In plain terms, CN1CCN(c2nccc3nc(-c4ccc(F)c(F)c4)[nH]c23)CC1 has a documented bioavailability of 36

###

assay protocol: Volume of distribution at steady state in Balb/C mouse at 2 mg/kg, iv by LC-MS/MS analysis
Assay type: ADME, organism-based
test settings: in vivo, read-out: Vdss
Exercise: for every item that follows, state its recorded Vd.
Give bare numbers, in L/kg.

Reference set, count: 5
CN1CCC(N2CCN(c3nccc4[nH]c(-c5ccc(F)c(F)c5)nc34)CC2)CC1; 4.3
CN1CCN(C2CCN(c3nccc4[nH]c(-c5cc(F)cc(F)c5)nc34)CC2)CC1; 30
Cn1ccnc1N1CCN(CC2CCN(c3nccc4[nH]c(-c5cc(F)cc(F)c5)nc34)CC2)CC1; 6
CN1CCN(c2nccc3nc(-c4ccc(F)c(F)c4)[nH]c23)CC1; 9
Fc1ccc(-c2nc3c(N4CCC(CN5CCOCC5)CC4)nccc3[nH]2)cc1F; 20

Now take the following compound into account.
Field Vd (entry CN1CCN(CC2CCN(c3cncc4[nH]c(-c5cc(F)cc(F)c5)nc34)CC2)CC1 ) reads 51
